Reported IC50 values are given for each entry in this list.
Target: UniProt Q13315
Sequence (Q13315 whole entry): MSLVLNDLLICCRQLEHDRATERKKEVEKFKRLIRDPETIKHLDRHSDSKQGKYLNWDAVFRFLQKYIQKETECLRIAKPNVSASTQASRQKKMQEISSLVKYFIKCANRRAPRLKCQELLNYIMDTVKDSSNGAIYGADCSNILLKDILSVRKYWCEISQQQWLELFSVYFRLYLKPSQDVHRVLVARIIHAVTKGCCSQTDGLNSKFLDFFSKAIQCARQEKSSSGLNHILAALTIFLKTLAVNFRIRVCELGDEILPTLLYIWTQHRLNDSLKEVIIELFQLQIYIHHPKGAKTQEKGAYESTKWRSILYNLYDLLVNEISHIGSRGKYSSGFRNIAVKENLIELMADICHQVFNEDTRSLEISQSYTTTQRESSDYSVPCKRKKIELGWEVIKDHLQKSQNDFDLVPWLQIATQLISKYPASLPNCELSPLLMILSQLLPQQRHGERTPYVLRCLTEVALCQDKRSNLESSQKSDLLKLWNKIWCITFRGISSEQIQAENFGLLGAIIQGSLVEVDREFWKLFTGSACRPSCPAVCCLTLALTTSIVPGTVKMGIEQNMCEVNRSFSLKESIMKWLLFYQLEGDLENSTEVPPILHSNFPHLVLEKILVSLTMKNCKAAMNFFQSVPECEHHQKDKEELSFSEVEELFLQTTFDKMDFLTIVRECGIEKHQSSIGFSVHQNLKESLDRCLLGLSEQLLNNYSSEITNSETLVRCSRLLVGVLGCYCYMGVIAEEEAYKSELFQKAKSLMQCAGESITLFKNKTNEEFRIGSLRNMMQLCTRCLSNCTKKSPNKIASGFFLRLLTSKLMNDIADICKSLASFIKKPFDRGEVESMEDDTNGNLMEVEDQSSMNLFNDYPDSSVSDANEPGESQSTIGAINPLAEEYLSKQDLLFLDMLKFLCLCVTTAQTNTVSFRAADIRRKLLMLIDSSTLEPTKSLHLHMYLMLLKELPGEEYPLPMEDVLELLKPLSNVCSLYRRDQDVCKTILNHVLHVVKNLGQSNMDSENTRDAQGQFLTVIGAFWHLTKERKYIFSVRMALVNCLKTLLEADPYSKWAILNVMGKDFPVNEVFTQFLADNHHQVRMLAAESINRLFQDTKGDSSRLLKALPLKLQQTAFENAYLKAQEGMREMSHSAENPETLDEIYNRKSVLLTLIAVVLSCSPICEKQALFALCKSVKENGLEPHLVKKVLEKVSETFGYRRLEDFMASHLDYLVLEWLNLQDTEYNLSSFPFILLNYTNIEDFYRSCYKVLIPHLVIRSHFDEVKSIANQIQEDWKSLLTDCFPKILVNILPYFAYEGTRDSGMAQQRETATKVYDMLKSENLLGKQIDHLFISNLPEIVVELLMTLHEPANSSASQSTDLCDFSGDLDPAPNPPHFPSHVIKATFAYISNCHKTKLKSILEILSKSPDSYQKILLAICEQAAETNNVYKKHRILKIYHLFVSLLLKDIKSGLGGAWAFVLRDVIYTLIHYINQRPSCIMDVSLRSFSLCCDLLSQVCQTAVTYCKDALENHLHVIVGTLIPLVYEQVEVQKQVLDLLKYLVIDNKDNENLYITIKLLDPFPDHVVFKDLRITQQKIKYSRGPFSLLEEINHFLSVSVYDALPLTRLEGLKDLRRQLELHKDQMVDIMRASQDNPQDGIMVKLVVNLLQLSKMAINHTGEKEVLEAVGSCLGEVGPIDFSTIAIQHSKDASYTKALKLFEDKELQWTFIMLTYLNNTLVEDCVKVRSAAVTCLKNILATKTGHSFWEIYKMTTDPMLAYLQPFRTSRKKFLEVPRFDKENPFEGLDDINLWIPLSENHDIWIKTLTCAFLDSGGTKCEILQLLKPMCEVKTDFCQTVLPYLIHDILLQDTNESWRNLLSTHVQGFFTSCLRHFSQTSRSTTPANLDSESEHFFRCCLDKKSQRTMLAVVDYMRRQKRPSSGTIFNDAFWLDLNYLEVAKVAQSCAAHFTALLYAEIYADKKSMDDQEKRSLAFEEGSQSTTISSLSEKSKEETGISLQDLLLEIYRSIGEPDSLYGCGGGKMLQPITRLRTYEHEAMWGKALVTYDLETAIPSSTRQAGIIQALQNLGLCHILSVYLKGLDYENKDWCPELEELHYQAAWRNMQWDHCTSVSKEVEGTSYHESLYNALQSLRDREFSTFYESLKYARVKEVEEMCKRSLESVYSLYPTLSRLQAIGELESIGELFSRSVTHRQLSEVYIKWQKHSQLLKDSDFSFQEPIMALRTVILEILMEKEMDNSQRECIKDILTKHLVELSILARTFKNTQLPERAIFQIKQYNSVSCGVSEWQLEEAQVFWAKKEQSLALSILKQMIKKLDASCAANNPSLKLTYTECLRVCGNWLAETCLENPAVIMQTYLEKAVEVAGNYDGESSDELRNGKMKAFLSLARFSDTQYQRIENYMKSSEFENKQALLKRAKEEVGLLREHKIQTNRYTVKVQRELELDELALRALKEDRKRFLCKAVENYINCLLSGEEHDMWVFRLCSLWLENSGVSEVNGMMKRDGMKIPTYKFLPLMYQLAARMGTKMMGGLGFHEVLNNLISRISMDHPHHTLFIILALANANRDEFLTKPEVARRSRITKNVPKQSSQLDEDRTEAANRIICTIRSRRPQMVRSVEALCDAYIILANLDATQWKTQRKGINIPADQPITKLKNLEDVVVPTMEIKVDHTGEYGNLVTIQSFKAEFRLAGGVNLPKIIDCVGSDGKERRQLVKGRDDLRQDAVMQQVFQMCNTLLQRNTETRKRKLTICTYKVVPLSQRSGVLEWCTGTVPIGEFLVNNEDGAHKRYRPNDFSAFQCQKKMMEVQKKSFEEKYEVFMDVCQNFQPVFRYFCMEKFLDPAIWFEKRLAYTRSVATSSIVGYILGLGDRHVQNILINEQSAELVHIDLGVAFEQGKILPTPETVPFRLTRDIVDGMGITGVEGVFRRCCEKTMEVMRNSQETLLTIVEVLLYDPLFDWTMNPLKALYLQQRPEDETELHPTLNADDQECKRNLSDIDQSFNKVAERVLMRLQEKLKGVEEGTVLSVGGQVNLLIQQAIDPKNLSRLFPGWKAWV
Experiment: ATM in Cell Western Assay (pKAP1 in etoposide-treated MCF-7 cells)
Format: cell-based
Details: MCF-7 cells, etoposide 100 μM, 1 hr, pKAP1 readout
Structures can show the parent of a compound that is named as a salt.

Some entries whose results are on file:
# Compound, IC50
rows = [
    ("CN(C)CCCOc1ncc(-c2ccc3ncc4c(c3c2)C2(CCC2)C(=O)N4C)cc1NS(=O)(=O)c1cc(F)cc(Cl)c1 [Example 171, hydrochloride]", "1 to 100 nM"),
    ("CN(C)CCCOc1ncc(-c2ccc3ncc4c(c3c2)C2(CCC2)C(=O)N4C)cc1NS(=O)(=O)c1cnn(C)c1 [Example 166, hydrochloride]", "1 to 100 nM"),
    ("COc1cccc(S(=O)(=O)Nc2cc(-c3ccc4ncc5c(c4c3)C3(CC3)C(=O)N5C)cnc2OCCCN(C)C)c1", "0.5 to 1 nM"),
    ("CN(C)CCCOc1ncc(-c2ccc3ncc4c(c3c2)C2(CC2)C(=O)N4C)cc1NS(C)(=O)=O", "1 to 100 nM"),
    ("CN(C)CCCOc1ncc(-c2ccc3ncc4c(c3c2)C2(CCC2)C(=O)N4C)cc1NS(=O)(=O)c1ccc(S(F)(F)(F)(F)F)cc1", "1 to 100 nM"),
    ("CN(C)CCCOc1ncc(-c2ccc3ncc4c(c3c2)C2(CCC2)C(=O)N4)cc1NS(C)(=O)=O", "1 to 100 nM"),
    ("CN1CCN(c2ncc(-c3ccc4ncc5c(c4c3)C3(CC3)C(=O)N5C)cc2NS(=O)(=O)c2ccccc2)CC1", "0.5 to 1 nM"),
    ("COc1ncc(-c2ccc3ncc4c(c3c2)C2(COC2)C(=O)N4C)cc1NS(=O)(=O)c1ccccc1", "1 to 100 nM"),
]

For reference, reported IC50 for `CN(C)CCCOc1ncc(-c2ccc3ncc4c(c3c2)C2(CCC2)C(=O)N4C)cc1NS(C)(=O)=O` stands at 1 to 100 nM

For reference, reported IC50 for CN1C(=O)C2(CCC2)c2c1cnc1ccc(-c3cnc(OCCCN4CC(F)(F)C4)c(NS(C)(=O)=O)c3)cc21 [Example 307, formate] stands at > 100 nM

----------
Molecular target: DNA-PK (Homo sapiens (Human))
Test: DNA-PK Enzyme-Linked Immunosorbent Assay (phosphorylation of GST-p53 (1-101) peptide)
Format: biochemical
Conditions: ELISA, 20 μM ATP
Counter-ions that a name gives are not always drawn.
Experimental endpoint: IC50

Some entries whose results are on file:
# Molecule, Endpoint result
data = [
    ("CN(C)CCCOc1ncc(-c2ccc3ncc4c(c3c2)[C@]2(C[C@@H](O)C2)C(=O)N4C)cc1NS(C)(=O)=O", "1 to 100 nM"),
    ("CC(C)NCCOc1ncc(-c2cc3c(cc2F)ncc2c3[C@]3(C[C@H](c4cccc(F)c4)C3)C(=O)N2C)cc1NS(C)(=O)=O", "1 to 100 nM"),
    ("CC(C)NCCOc1ncc(-c2cc3c(cc2F)ncc2c3[C@]3(C[C@H](N(C)c4ccccc4)C3)C(=O)N2C)cc1NS(C)(=O)=O", "< 0.5 nM"),
    ("CC(C)NCCOc1ncc(-c2cc3c4c(cnc3cc2F)N(C)C(=O)C42CN(c3cccc(F)c3)C2)cc1NS(C)(=O)=O", "< 0.5 nM"),
]

For reference, reported IC50 for `COc1ccc(N2CC3(C2)C(=O)N(C)c2cnc4cc(F)c(-c5cnc(OCCNC(C)C)c(NS(C)(=O)=O)c5)cc4c23)cc1` stands at 1 to 100 nM

For reference, reported IC50 for `CC(C)NCCOc1ncc(-c2cc3c(cc2F)ncc2c3[C@]3(C[C@@H](c4ccccc4F)C3)C(=O)N2C)cc1NS(C)(=O)=O` stands at 1 to 100 nM

For reference, reported IC50 for CCS(=O)(=O)Nc1cc(-c2cc3c4c(cnc3cc2F)N(C)C(=O)C42CN(c3ccccc3)C2)cnc1OCCNC(C)C [Example 522, hydrochloride] stands at 0.5 to 1 nM

For reference, reported IC50 for `CN(C)CCCOc1ncc(-c2ccc3ncc4c(c3c2)C2(CC(F)(F)C2)C(=O)N4C)cc1NS(C)(=O)=O` stands at 1 to 100 nM

For reference, reported IC50 for `CC(C)NCCOc1ncc(-c2cc3c4c(cnc3cc2F)N(C)C(=O)C42CN(c3cccc(Cl)c3)C2)cc1NS(C)(=O)=O` stands at 1 to 100 nM

For reference, reported IC50 for `CO[C@H]1C[C@]2(C1)C(=O)N(C)c1cnc3cc(F)c(-c4cnc(OCCNC(C)C)c(NS(C)(=O)=O)c4)cc3c12` stands at < 0.5 nM

For reference, reported IC50 for `COc1ccc([C@H]2C[C@@]3(C2)C(=O)N(C)c2cnc4cc(F)c(-c5cnc(OCCNC(C)C)c(NS(C)(=O)=O)c5)cc4c23)cn1` stands at > 100 nM

For reference, reported IC50 for `CC(C)NCCOc1ncc(-c2cc3c4c(cnc3cc2F)N(C)C(=O)C42CN(c3ccc4c(c3)OCO4)C2)cc1NS(C)(=O)=O` stands at < 0.5 nM

For reference, reported IC50 for `CC(C)NCCOc1ncc(-c2cc3c(cc2F)ncc2c3[C@]3(C[C@@H](c4ccc(Cl)cc4)C3)C(=O)N2C)cc1NS(C)(=O)=O` stands at 1 to 100 nM
